Would you mind telling me the reported Cell viability of bVSMCs after seven days (MTT signal, relative to control) of each entry?
system: bovine vascular smooth muscle cells (bVSMCs); type: cell-based; details: 10 uM, 7 days, MTT, mean of three experiments
One number for each entry.

CN(C)CC(=O)Nc1ccc2[nH]c(=O)c3ccccc3c2c1.Cl [PJ34]
97.07

Shift focus to the following entry.
I'm curious: which Cell viability of bVSMCs after seven days (MTT signal, relative to control) was measured for COc1ccc([C@@H]2Sc3ccccc3N(CCN(C)C)C(=O)[C@@H]2OC(C)=O)cc1 [Diltiazem, diltiazem] tested on bovine vascular smooth muscle cells (bVSMCs)?
94.54

---

tested on: human monocyte-macrophages (HMMs); test: MTT toxicity assay, HMMs, seven days (Example 3); assay type: cell-based; conditions: 5 uM, 7 days, MTT, mean of three experiments
Property label: Cell viability by MTT, percent of control
One number for each entry.

Solved cases (3 shown):
O=C1NCCc2c(OCCCCN3CCCCC3)cccc21
95.11
O=C1CCc2cc(OCCCCc3nnnn3C3CCCCC3)ccc2N1
90.74
CC(=O)CCCCn1c(=O)c2c(ncn2C)n(C)c1=O
107.27

Quick batch: Cell viability by MTT, percent of control for everything below.
1. NC(=O)c1cccc(N)c1 [3-AB, 3-aminobenzamide]
2. COc1ccc([C@@H]2Sc3ccccc3N(CCN(C)C)C(=O)[C@@H]2OC(C)=O)cc1
3. COc1ccccc1Oc1c(NS(=O)(=O)c2ccc(C(C)(C)C)cc2)nc(-c2ncccn2)nc1OCCO [bosentan MH, Bosentan monohydrate]
4. CN(C)CC(=O)Nc1ccc2[nH]c(=O)c3ccccc3c2c1.Cl

1: 93.51; 2: 91.09; 3: 84.90; 4: 95.65

---

Would you mind telling me the reported Cell viability of bVSMCs after seven days (MTT signal, relative to control) of each entry?
test system: bovine vascular smooth muscle cells (bVSMCs); type: cell-based; conditions: 100 uM, 7 days, MTT, mean of three experiments
Marks after values point to notes of the source that are not given here.

Examples from the recorded data:
CC(=O)CCCCn1c(=O)c2c(ncn2C)n(C)c1=O [Pentoxifylline, pentoxifylline]
96.96
COc1ccccc1Oc1c(NS(=O)(=O)c2ccc(C(C)(C)C)cc2)nc(-c2ncccn2)nc1OCCO [bosentan MH, Bosentan monohydrate]
85.05*

Give me Cell viability of bVSMCs after seven days (MTT signal, relative to control) for each of these compounds, listed below.
1. COc1ccc([C@@H]2Sc3ccccc3N(CCN(C)C)C(=O)[C@@H]2OC(C)=O)cc1 [Diltiazem, diltiazem]
2. O=C1CCc2cc(OCCCCc3nnnn3C3CCCCC3)ccc2N1 [cilostazol]

119.64*
65.21*

---

system: bovine vascular smooth muscle cells (bVSMCs); format: cell-based; details: at the concentrations tested (0.5 to 100 μM), 7 days
Property label: Toxicity to bVSMCs (MTT assay, in words)

O=C1NCCc2c(OCCCCN3CCCCC3)cccc21
virtually non-toxic
COc1ccc([C@@H]2Sc3ccccc3N(CCN(C)C)C(=O)[C@@H]2OC(C)=O)cc1
non-toxic
CC(=O)CCCCn1c(=O)c2c(ncn2C)n(C)c1=O
virtually non-toxic
CN(C)c1ccc(O)c2c1C[C@H]1C[C@H]3[C@H](N(C)C)C(O)=C(C(N)=O)C(=O)[C@@]3(O)C(O)=C1C2=O
non-toxic

// next entry
Please look up its Toxicity to bVSMCs (MTT assay, in words): NC(=O)c1cccc(N)c1 [3-AB, 3-aminobenzamide]
virtually non-toxic
